These measurements were taken from ChEMBL document CHEMBL4622991.

Species on record: Sus scrofa
experimental_details: Inhibition of pig microtubule polymerization at 10 uM measured every 1 min for 40 mins by spectrophotometric analysis relative to control; values are per cent of control
Entries annotated with measured residual activity
Your answer should be a plain number; it is taken to be in %.

Study these solved cases before continuing.
COc1ccc2nc(-c3cccnc3-c3ccc(OC)c(OC)c3)oc2c1 89
COc1cc(-c2cccc(-c3nc4ccccc4[nH]3)n2)cc(OC)c1OC 90

Please look at the following molecule next.
Query COc1ccc(-c2cccc(-c3nc4ccccc4o3)n2)cc1OC yields residual activity of 89
